We begin with a simple list: items and their reported TGI.
# Tested on: KM12 colon
# protocol.summary: NCI tumour cell line growth inhibition, 48 h

Solved entries (count: 4):
molecule	TGI
FC(F)(F)c1ccc(-c2cnc(Cl)nc2NCc2cc(C(F)(F)F)cc(C(F)(F)F)c2)cc1	> 100 µM
Nc1nc(N)c2[nH]cnc2n1 (tested in a mixture with another compound)	> 100 µM
Nc1ncnc2c1cnn2Cc1cn(COCC(O)CO)nn1 (stereo not given)	> 100 µM
COc1cccc(C2SCC(=O)N2c2ccc(-n3c(-c4ccccc4)nc4ccccc4c3=O)cc2)c1OC (stereo not given)	> 100 µM

Switching to the query record.
Prompt: Which measured TGI belongs to Cc1ccc(S(=O)(=O)NNC2(NS(=O)(=O)c3ccc(Cl)cc3)C(Cl)=C(Cl)C(=O)c3ccccc32)cc1 (stereo not given) , tested on KM12 colon?
Response: 35.2 µM

----------
# Test system: MDA-MB-231 breast
# protocol.summary: NCI tumour cell line growth inhibition, 48 h
measured.attribute: TGI (µM)
Report as a plain number; the unit µM is understood.

Solved entries (count: 2):
compound	units.of.measure	TGI
O=C1Nc2ccccc2/C1=C/c1c(Cl)[nH]c2ccc(O)cc12	µM	6.77
O=C(COc1cccc(/C=C2\COc3ccc(Cl)cc3C2=O)c1)c1ccc(Cl)cc1	µM	21.1

Prompt: Please look up its TGI: CSC1(SC2=NCCN2)SC2(NCCN2)S1
Response: 38.6

Prompt: Please look up its TGI: COC(=O)C1=C(C)NC(C)=C(C(=O)OC)C1c1cccc(NO)c1
Response: 31.4

Prompt: Please look up its TGI: Cc1[nH]c2ccccc2c1CCNCc1ccc(/C=C/C(=O)NO)cc1
Response: 0.162

Prompt: Please look up its TGI: COC(=O)C1(Cc2ccc3c(c2)CCC3)Cc2ccc3c(c2C1)CCC3 (stereo unspecified)
Response: 45

Prompt: Please look up its TGI: CC(=O)N1N(c2ccc([N+](=O)[O-])cc2)C(=O)C1(C)C
Response: 45.7

Prompt: Please look up its TGI: O=C(CN(/C=C/C(=O)C(F)(F)F)c1ccccc1)c1ccc(Cl)c(Cl)c1
Response: 26.3

----------
# Tested on: SK-MEL-5 melanoma
# protocol.summary: NCI tumour cell line growth inhibition, 48 h
*1 amine or outer side, *2 acyl side, *3 side chain or, on linkers, in order; H or OH if unused. Where a SMILES comes first, the peptide text is derived from it. [ ]: non-standard residue; d: D form. X33 = C=CCC(O[*:1])C(=O)[*:2]; NMeV = CN[CH](C(=O)O)C(C)C; NMeA = CN[CH](C)C(=O)O; βAla = NCCC(=O)O
We begin with a simple list: items and their reported TGI.
Report as a plain number; the unit µM is understood.

compound	target.under.test	TGI / µM
C=CCC1OC(=O)CCNC(=O)C(C)N(C)C(=O)C(C(C)C)N(C)C(=O)C(C(C)CC)NC(=O)C2CCCN2C1=O (centres undefined) (cyclo([X33]PI[NMeV][NMeA][βAla]); configuration not given here)	SK-MEL-5 melanoma	6.12
COc1ccc(-c2nn(-c3cccc(Cl)c3)cc2-c2cc(-c3ccccc3)nc(N)n2)cc1	SK-MEL-5 melanoma	28.4
CSc1ccccc1C#Cc1ccccc1C#CCCCCO	SK-MEL-5 melanoma	27.6

Prompt: Please look up its TGI: CCCCOCCOC1=CC(=O)c2c(O)ccc(O)c2C1=O
Response: 0.422

Prompt: Please look up its TGI: Cc1ccc(S(=O)(=O)NNC2(NS(=O)(=O)c3ccc(Cl)cc3)C(Cl)=C(Cl)C(=O)c3ccccc32)cc1 (centres undefined)
Response: 28.7

----------
System: NCI-H460 lung | Read-out: GI50

Solved entries (count: 3):
molecule	GI50
CN(C)CC1CCCCCC(CN(C)C)C1=O (stereo not drawn)	18 µM
CCOC(=O)c1nc(Nc2ccc(Cl)cc2)c2ccccc2n1	9.44 µM
Cc1ccc2c(c1)C(=O)c1c-2n(CCCBr)c(=O)c2cc([N+](=O)[O-])ccc12	6.43 µM

Prompt: Please look up its GI50: CCCOc1nc(SCCC)nc2c1cnn2-c1ccccc1
Response: > 100 µM

Prompt: Please look up its GI50: COc1cc(C(=O)/C=C/c2cccnc2Nc2ccccc2)cc(OC)c1OC
Response: 1.8 µM

Prompt: Please look up its GI50: Cc1[nH]c2ccccc2c1CCNCc1ccc(/C=C/C(=O)NO)cc1
Response: < 0.01 µM

Prompt: Please look up its GI50: O=C(c1cccnc1)c1cc(-c2ccccn2)c(=O)n2ccccc12
Response: > 100 µM

Prompt: Please look up its GI50: Nc1n[nH]c2ccc([C@@H]3Nc4ccc5[nH]ncc5c4[C@H]4C5C=CC(C5)[C@@H]34)cc12 (stereo partly drawn)
Response: 0.365 µM

----------
We begin with a simple list: items and their reported TGI.
# Test system: SF-295 CNS
# protocol.summary: NCI tumour cell line growth inhibition, 48 h

Solved entries (count: 5):
compound	observed.measurement
CCCOc1nc(SCCC)nc2c1cnn2-c1ccccc1	> 100 µM
N.N.NCCCCCCN.O=C([O-])CC(=O)[O-].O=C([O-])CC(=O)[O-].[Pt+4].[Pt+4]	> 100 µM
O=C1/C(=C/c2c(Cl)[nH]c3ccccc23)c2ccccc2N1c1ccccc1	8.54 µM
CCOP(=O)(OCC)C1=C(c2ccccc2)OC(N)=C(C#N)C1c1ccc(Cl)cc1 (stereo not given)	> 100 µM
O=C(NN1C(=O)CSC1c1ccc(C(F)(F)F)cc1)c1ccncc1 (stereo not given)	> 100 µM

Prompt: Please look up its TGI: Cn1ccnc1C(=O)/C=C/c1ccc(CC(=O)Nc2ccc(C(F)(F)F)cc2)cc1
Response: 5.17 µM

Prompt: Please look up its TGI: CC(=O)Nc1ccc(/C=C/C(=O)c2sc(-c3nc(C)c(C(=O)/C=C/c4ccc(NC(C)=O)cc4)s3)nc2C)cc1
Response: > 100 µM

Prompt: Please look up its TGI: CS(=O)(=O)Nc1ccc(N=Cc2c(O)[nH]c3ccccc23)cc1
Response: > 25 µM

Prompt: Please look up its TGI: CC1=N[C@](C)(C2CC3C=CC2C3=O)COC1=O (stereo not given in full)
Response: > 100 µM

Prompt: Please look up its TGI: CC(=O)N(CN1C(=O)CCC1C(=O)O)c1cccc(O)c1 (stereo not given)
Response: > 100 µM

----------
# Test system: NCI-H522 lung
# protocol.summary: NCI tumour cell line growth inhibition, 48 h
measured.attribute: GI50

Solved entries (count: 3):
compound	measured.attribute	observed.measurement
COCCNc1cc(NC(=O)N2CCCc3cc(CN4CCN(C)CC4=O)c(C=O)nc32)ncc1C#N	GI50	> 50000 nM
C=C1CCC2C3(C)COC(c4ccccc4Br)OC3CCC2(C)C1C/C=C1/C(=O)OCC1OC(C)=O (centres undefined)	GI50	604 nM
O=C(CCCSc1nc(-c2ccccc2)cc(-c2ccc(Cl)cc2)n1)NO	GI50	1960 nM

Switching to the query record.
Prompt: Please look up its GI50: CC(=O)O[C@H]1CC[C@@]2(C)[C@@H](CC[C@@H]3[C@@H]2CC[C@]2(C)C=C(C=O)C[C@@H]32)C1
Response: 21100 nM

----------
# Tested on: CCRF-CEM leukemia
# protocol.summary: NCI tumour cell line growth inhibition, 48 h; in the data active = GI50 below about 0.43 µM; inactive = the rest
Result category, one only: true = active, false = inactive

The examples below pair each entry with its known result.
compound	class.label
Cc1ccc2c(c1)C(=O)c1c-2n(CCCBr)c(=O)c2cc([N+](=O)[O-])ccc12	false
CCOc1ccccc1/C=N\N=C(\N)N/N=C/c1ccccc1OCC	false
C=C1CCC2C3(C)COC(c4ccccc4Br)OC3CCC2(C)C1C/C=C1/C(=O)OCC1OC(C)=O (configuration not stated)	true

Prompt: Could you please tell me the result logged for Nc1c(C(=O)Nc2ccccc2)sc2nc3c(cc12)CN(Cc1ccccc1)CC3 in this assay?
Response: false

Prompt: Could you please tell me the result logged for CS(=O)(=O)Nc1ccc(N=Cc2c(O)[nH]c3ccccc23)cc1 in this assay?
Response: false

Prompt: Could you please tell me the result logged for CCCCNC(=O)NS(=O)(=O)c1ccc(N2N=C(c3cc(C)ccc3C)CC2c2cc(OC)c(OC)c(OC)c2)cc1 (configuration not stated) in this assay?
Response: false

Prompt: Could you please tell me the result logged for COc1cc(C(=O)/C=C/c2cccnc2Nc2ccccc2)cc(OC)c1OC in this assay?
Response: true

Prompt: Could you please tell me the result logged for C/C=C/[C@@H]1OC(=O)C2=C[C@@H](O)[C@@H](/C=C/C)O[C@H]21 in this assay?
Response: true

----------
We begin with a simple list: items and their reported TGI.
# Tested on: OVCAR-3 ovarian
# protocol.summary: NCI tumour cell line growth inhibition, 48 h

compound	observed.measurement
CS/C(=N\c1nccs1)NC(=O)c1cccc(Cl)c1	> 100 µM

Prompt: Please look up its TGI: CC(C)(C#N)c1cc(C(=O)Nc2cc(Nc3ncccc3-c3ncnc4nc[nH]c34)ccc2F)cc(C(F)(F)F)c1
Response: > 4.1 µM

Prompt: Please look up its TGI: Cc1ccc2c(c1)C(=O)c1c-2n(CCCBr)c(=O)c2cc([N+](=O)[O-])ccc12
Response: > 100 µM

Prompt: Please look up its TGI: CCSc1nc(=[N+]2CCCC2)ss1
Response: 48.2 µM

Prompt: Please look up its TGI: c1ccc(C2OCC(OC3CCCCO3)CO2)cc1 (stereo unspecified)
Response: > 100 µM

Prompt: Please look up its TGI: CC(C)/C(Cl)=N\OC(=O)Nc1ccc(F)cc1F
Response: 6.69 µM
